Target: human class II OR identified in the library screening (Homo sapiens, UniProt Q9GZK7)
Sequence (Q9GZK7 1-298): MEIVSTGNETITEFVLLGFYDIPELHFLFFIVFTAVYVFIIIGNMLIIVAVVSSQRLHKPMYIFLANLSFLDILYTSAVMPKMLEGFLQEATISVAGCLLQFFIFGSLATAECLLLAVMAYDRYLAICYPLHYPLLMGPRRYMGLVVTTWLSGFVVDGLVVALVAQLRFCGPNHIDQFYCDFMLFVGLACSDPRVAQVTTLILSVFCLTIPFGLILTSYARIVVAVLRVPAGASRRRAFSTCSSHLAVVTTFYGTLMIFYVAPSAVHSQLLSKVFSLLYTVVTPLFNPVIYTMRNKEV
Assay: Confirmatory dose-response analysis of library-hit OR with cognate ligand, wild-type vs C-terminal domain SEQ ID NO: 221 (Table 17);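 note: Wild-type receptor sequences expressed from the pcDNA3.1(+) vector and compared with the C-terminally modified receptors in dose-response tests using each receptor's cognate ligand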
Conditions: read-out: Potency, EC50 changed C-term; OR11A1, modified C-terminus SEQ ID NO: 221 (SEQ ID NO: 702)
readoutType: pEC50
In simple prose, pEC50 is minus the logarithm base ten of a concentration in moles per litre.

I'd like to know its pEC50. The compound in question is CC1CCCC2(C)CCCCC12O (stereo not shown) [Geosmin]
5.66

====

Biological target: OR8K3 (Homo sapiens, UniProt Q8NH51, D295E/L122R/Y298D)
Construct: Improved functional expression of modified OR-genes containing the truncated, optimized C-terminus; expressed in transfected cells; host or cells: HEK293T stably expressing human RTP1S(V227I) and RTP2(L220R)
Sequence (Q8NH51 with tags, fused parts or gaps L122R/D295E/Y298D): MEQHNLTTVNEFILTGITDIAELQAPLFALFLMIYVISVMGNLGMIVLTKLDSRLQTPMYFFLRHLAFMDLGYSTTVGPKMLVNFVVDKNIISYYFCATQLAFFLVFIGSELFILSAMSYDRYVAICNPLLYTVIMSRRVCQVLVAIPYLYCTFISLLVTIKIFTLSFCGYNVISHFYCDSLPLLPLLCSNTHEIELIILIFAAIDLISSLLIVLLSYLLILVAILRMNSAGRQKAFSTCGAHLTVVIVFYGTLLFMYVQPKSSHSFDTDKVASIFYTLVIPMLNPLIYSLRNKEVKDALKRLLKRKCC
Experiment: cell-based
Assay type: cell-based
Conditions: wild-type
readoutType: EC50
Value and unit, in that order.

Form: Entry = CC1CCC(C(C)C)C(O)C1 (stereo not shown) | System = OR8K3 (Homo sapiens, UniProt Q8NH51, D295E/L122R/Y298D) | EC50 = ____
236 µM

====

Biological target: OR5B12 (Homo sapiens, UniProt Q96R08, C141R)
Construct: Improved functional expression of modified OR-genes containing the truncated, optimized C-terminus; expressed in transfected cells; host or cells: HEK293T stably expressing human RTP1S(V227I) and RTP2(L220R)
Sequence (Q96R08 with tags, fused parts or gaps C141R): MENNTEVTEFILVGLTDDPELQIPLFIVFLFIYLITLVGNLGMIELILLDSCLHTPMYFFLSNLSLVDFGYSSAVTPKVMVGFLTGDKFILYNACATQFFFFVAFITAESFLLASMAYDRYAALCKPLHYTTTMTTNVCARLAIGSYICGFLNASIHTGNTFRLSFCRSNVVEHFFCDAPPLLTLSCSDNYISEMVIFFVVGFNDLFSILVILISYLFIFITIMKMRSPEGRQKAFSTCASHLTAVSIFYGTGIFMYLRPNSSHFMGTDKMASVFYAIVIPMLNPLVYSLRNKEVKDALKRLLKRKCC
Assay: CRE-luciferase assay, HEK293T cells expressing OR5B12 (wild-type / modified C-terminus)
Type: cell-based
Settings: OR5B12 variant, 31 μM Hedione HC
readoutType: % of the activation by the optimized sequence RNKEVKDALKRLLKRKCC
Value and unit, in that order.

I'd like to know its % of the activation by the optimized sequence RNKEVKDALKRLLKRKCC. The substance in question is SEQ ID NO: 117 (RNKEVKKAIKRLFKRKCC; source 1..18: note = C-terminal domain sequence)
435.4%

I'd like to know its % of the activation by the optimized sequence RNKEVKDALKRLLKRKCC. The substance in question is SEQ ID NO: 86: optimized C-terminal sequence fused after TM7 of the OR of the assay (RNKEVKDALKRLLKRKCC; source 1..18: note = C-terminal domain sequence)
100%

I'd like to know its % of the activation by the optimized sequence RNKEVKDALKRLLKRKCC. The substance in question is SEQ ID NO: 147 (RNKEVKDALKRLLKRKCCG; source 1..19: note = C-terminal domain sequence)
394.57%

I'd like to know its % of the activation by the optimized sequence RNKEVKDALKRLLKRKCC. The substance in question is SEQ ID NO: 145 (RNKEVKDALKRLLKRKCCK; source 1..19: note = C-terminal domain sequence)
280.71%

I'd like to know its % of the activation by the optimized sequence RNKEVKDALKRLLKRKCC. The substance in question is SEQ ID NO: 138 (RNKEVKDALKRLLKRKCCS; source 1..19: note = C-terminal domain sequence)
176.99%

I'd like to know its % of the activation by the optimized sequence RNKEVKDALKRLLKRKCC. The substance in question is SEQ ID NO: 221 (RNKEVKKAIKRLFKRKCCRRR; source 1..21: note = C-terminal domain sequence)
1032.2%

I'd like to know its % of the activation by the optimized sequence RNKEVKDALKRLLKRKCC. The substance in question is SEQ ID NO: 142 (RNKEVKDALKRLLKRKCCH; source 1..19: note = C-terminal domain sequence)
142.62%

I'd like to know its % of the activation by the optimized sequence RNKEVKDALKRLLKRKCC. The substance in question is SEQ ID NO: 141 (RNKEVKDALKRLLKRKCCY; source 1..19: note = C-terminal domain sequence)
298.48%

I'd like to know its % of the activation by the optimized sequence RNKEVKDALKRLLKRKCC. The substance in question is SEQ ID NO: 122 (RNKEVKKAIKRLLKRKCR; source 1..18: note = C-terminal domain sequence)
331.3%

I'd like to know its % of the activation by the optimized sequence RNKEVKDALKRLLKRKCC. The substance in question is SEQ ID NO: 144 (RNKEVKDALKRLLKRKCCD; source 1..19: note = C-terminal domain sequence)
86.54%

I'd like to know its % of the activation by the optimized sequence RNKEVKDALKRLLKRKCC. The substance in question is SEQ ID NO: 156 (RNKEVKDALKRLLKRKCCRRR; source 1..21: note = C-terminal domain sequence)
250.7%

I'd like to know its % of the activation by the optimized sequence RNKEVKDALKRLLKRKCC. The substance in question is SEQ ID NO: 148: printed for RNKEVKDALKRLLKRKCRR in Table 6
181.2%

I'd like to know its % of the activation by the optimized sequence RNKEVKDALKRLLKRKCC. The substance in question is SEQ ID NO: 121 (RNKEVKRAIKRLLKRKCR; source 1..18: note = C-terminal domain sequence)
342.8%

I'd like to know its % of the activation by the optimized sequence RNKEVKDALKRLLKRKCC. The substance in question is SEQ ID NO: 134 (RNKEVKDALKRLLKRKCCC; source 1..19: note = C-terminal domain sequence)
168.91%

// data source = patent US20260210939A1
